Below: a set of entries, each annotated with reported SI = CC50/IC50 for DD2.
tested on: DD2 chloroquine-resistance strain; experiment: SYBR green antimalarial assay, DD2 strain; conditions: selectivity index
The answer should be a number; do not append a unit.

Example results:
-- ask Given O=[N+]([O-])c1ccc(NN=Cc2ccc(O)cc2O)c([N+](=O)[O-])c1 , state its recorded SI = CC50/IC50 for DD2.
-- reply 7

-- ask Given COc1cc(C=NNc2ccc([N+](=O)[O-])cc2[N+](=O)[O-])ccc1O , state its recorded SI = CC50/IC50 for DD2.
-- reply 55

-- ask Given O=[N+]([O-])c1ccc(NN=Cc2cccc(O)c2)c([N+](=O)[O-])c1 , state its recorded SI = CC50/IC50 for DD2.
-- reply 19

For the next question, use this compound.
-- ask Given O=[N+]([O-])c1ccc(NN=C(c2ccccc2)c2ccccc2)c([N+](=O)[O-])c1 , state its recorded SI = CC50/IC50 for DD2.
-- reply 3

---

test system: 3D7 chloroquine-sensitive strain of Plasmodium falciparum; experiment: SYBR green antimalarial assay, 3D7 strain; conditions: Plasmodium falciparum, 3D7, 72 h, read-out: 3D7 IC50
So basically: is IC50 under 10 µM? Then true (1). Not under? Then false (0).

-- ask IC50 strictly < 10 µM for this compound? O=[N+]([O-])c1ccc(NN=Cc2cccc(O)c2)c([N+](=O)[O-])c1
-- reply true (1)

-- ask IC50 strictly < 10 µM for this compound? O=[N+]([O-])c1ccc(NN=Cc2ccc(O)cc2O)c([N+](=O)[O-])c1
-- reply false (0)

-- ask IC50 strictly < 10 µM for this compound? O=[N+]([O-])c1ccc(NN=C(c2ccccc2)c2ccccc2)c([N+](=O)[O-])c1
-- reply false (0)

-- ask IC50 strictly < 10 µM for this compound? C[C@H]1[C@H](OC(=O)CCC(=O)O)O[C@@H]2O[C@@]3(C)CC[C@H]4[C@H](C)CC[C@@H]1[C@@]24OO3 [Artesunate, reference compound]
-- reply true (1)

-- ask IC50 strictly < 10 µM for this compound? COc1cc(C=NNc2ccc([N+](=O)[O-])cc2[N+](=O)[O-])ccc1O
-- reply true (1)

---

assay: MTT cytotoxicity assay
REPORTED_ENDPOINT: CC50 at 72 h (µM)
Enter your answer as a number in µM; do not include the unit.

-- ask Given O=[N+]([O-])c1ccc(NN=Cc2ccc(O)cc2O)c([N+](=O)[O-])c1 , state its recorded CC50 at 72 h.
-- reply 119

-- ask Given O=[N+]([O-])c1ccc(NN=Cc2cccc(O)c2)c([N+](=O)[O-])c1 , state its recorded CC50 at 72 h.
-- reply 101

-- ask Given COc1cc(C=NNc2ccc([N+](=O)[O-])cc2[N+](=O)[O-])ccc1O , state its recorded CC50 at 72 h.
-- reply 132

For the next question, use this compound.
-- ask Given O=[N+]([O-])c1ccc(NN=C(c2ccccc2)c2ccccc2)c([N+](=O)[O-])c1 , state its recorded CC50 at 72 h.
-- reply 106

---

system: 3D7 chloroquine-sensitive strain of Plasmodium falciparum; assay: SYBR green antimalarial assay, 3D7 strain; conditions: selectivity index
REPORTED_ENDPOINT: SI = CC50/IC50 for 3D7
The answer should be a number; do not append a unit.

Example results:
-- ask Given O=[N+]([O-])c1ccc(NN=Cc2cccc(O)c2)c([N+](=O)[O-])c1 , state its recorded SI = CC50/IC50 for 3D7.
-- reply 79

-- ask Given O=[N+]([O-])c1ccc(NN=C(c2ccccc2)c2ccccc2)c([N+](=O)[O-])c1 , state its recorded SI = CC50/IC50 for 3D7.
-- reply 3

Continuing:
-- ask Given COc1cc(C=NNc2ccc([N+](=O)[O-])cc2[N+](=O)[O-])ccc1O , state its recorded SI = CC50/IC50 for 3D7.
-- reply 20

-- ask Given O=[N+]([O-])c1ccc(NN=Cc2ccc(O)cc2O)c([N+](=O)[O-])c1 , state its recorded SI = CC50/IC50 for 3D7.
-- reply 8
